B1: S100A14 (parent)
chain: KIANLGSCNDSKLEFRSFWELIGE

Variants of: B1
Assay: protein stability index of a GFP-peptide fusion (GPS, HEK-293T) (PSI 1-6); higher = more stable;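 further: lentivirally expressed fusions sorted by FACS into six bins by GFP to DsRed ratio, PSI derived from sequencing read proportions per bin multiplied by bin number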
Settings: c terminus: a fixed tail appended
Assign protein stability index to each entry below.

Here are 4 variants together with their reported answers.
L13H :: 2.12
L13E :: 1.71
S11W :: 1.18
G6P :: 1.67

Give protein stability index for all variants that follow.
1. W19Y
2. G6E
3. N4M
4. I2N
5. R16G

1. 1.78
2. 2.06
3. 1.64
4. 1.6
5. 1.54

Give protein stability index for all variants that follow.
1. F18R
2. F18D

1: 2.5; 2: 3.52
